Recorded pIC50 values for a group of compounds are listed next.
MEASUREMENT TARGET: VIM-1 (Pseudomonas aeruginosa (strain ATCC 15692 / DSM 22644 / CIP 104116 / JCM 14847 / LMG 12228 / 1C / PRS 101 / PAO1), UniProt A0A0F7KYQ8)
ASSAY PROCEDURE: biochemical
CONDITION CONTEXT: CCF2-FA substrate, 2 hours at 25° C
Note on pIC50: it is the negative log10 of concentration, concentration in mol/L.

Below, 4 compounds whose answers are already recorded.
compound=NS(=O)(=O)c1c(S(=O)(=O)C2CNC2)ccc(-c2cccnc2N2CCOCC2)c1-c1nn[nH]n1 test_result=9.47
compound=NCCS(=O)(=O)c1ccc(-c2cnc(N)c(C(N)=O)c2)c(-c2nn[nH]n2)c1S(N)(=O)=O test_result=8.91
compound=NC(=O)N1CCC(S(=O)(=O)c2ccc(-c3cccc4nc(N)[nH]c34)c(-c3nn[nH]n3)c2S(N)(=O)=O)CC1 test_result=9.51
compound=NC[C@H](O)CS(=O)(=O)c1ccc(-c2cccc3[nH]c(N)nc23)c(-c2nn[nH]n2)c1S(N)(=O)=O test_result=9.55

Prompt line: Retrieve pIC50 measured for `Nc1nc2c(-c3ccc(S(=O)(=O)[C@@H]4CCNC4)c(S(N)(=O)=O)c3-c3nn[nH]n3)cccc2o1` and print it.
Response line: 9.38

Prompt line: Retrieve pIC50 measured for `Nc1nc2c(-c3ccc(S(=O)(=O)[C@@H]4CCNC4)c(S(N)(=O)=O)c3-c3nn[nH]n3)cccc2s1` and print it.
Response line: 9.53

Prompt line: Retrieve pIC50 measured for NCCS(=O)(=O)c1ccc(-c2cccc(S(=O)(=O)NC3CC3)c2)c(-c2nnn[nH]2)c1S(N)(=O)=O.O=C(O)C(F)(F)F [Example 161, 2,2,2-trifluoroacetate] and print it.
Response line: 8.52

Prompt line: Retrieve pIC50 measured for `C[C@@H](N)CS(=O)(=O)c1ccc(-c2cccc3c2nc(N)n3C)c(-c2nn[nH]n2)c1S(N)(=O)=O` and print it.
Response line: 9.16

* * *

Recorded IC50 values for a group of compounds are listed next.
MEASUREMENT TARGET: VIM-1 (Pseudomonas aeruginosa (strain ATCC 15692 / DSM 22644 / CIP 104116 / JCM 14847 / LMG 12228 / 1C / PRS 101 / PAO1))
ASSAY PROCEDURE: biochemical
CONDITION CONTEXT: CCF2-FA substrate, 2 hours at 25° C
Answer with the figure and its unit, nothing else.

Below, 3 compounds whose answers are already recorded.
compound=COc1ccc(Cc2cc3c(-c4ccc(S(=O)(=O)C5CNC5)c(S(N)(=O)=O)c4-c4nnn[nH]4)cccc3[nH]2)cc1 recorded_endpoint=IC50 test_result="0.558 nM"
compound="NS(=O)(=O)c1c(S(=O)(=O)C2CNC2)ccc(-c2ccc3ncnn3c2)c1-c1nnn[nH]1.O=C(O)C(F)(F)F [Example 104, 2,2,2-trifluoroacetate]" recorded_endpoint=IC50 test_result="0.699 nM"
compound=NCCS(=O)(=O)c1ccc(-c2cccc3c2nc(N)n3C2CNC2)c(-c2nn[nH]n2)c1S(N)(=O)=O recorded_endpoint=IC50 test_result="1.1 nM"

Prompt line: Retrieve IC50 measured for `NC[C@@H](N)CS(=O)(=O)c1ccc(-c2ccc(N)nc2)c(-c2nn[nH]n2)c1S(N)(=O)=O` and print it.
Response line: 1.08 nM
